A compilation of published IC50 results with UniProtKB Q15910.
readout type: IC50 (nM)

1. Cc1cc(C)c(CNC(=O)c2cc(-c3ccc(N4CCNCC4)nc3)cc3c2C(C)CN3C(C)C)c(=O)[nH]1 (stereo in doubt; 39e1) : 17
2. CC1(C)CC(NC(=O)c2ccc(Oc3cccc(-c4ccncn4)c3C#N)c(Cl)c2)CC(C)(C)N1 : 24
3. CC1(C)CC(NC(=O)c2ccc(Oc3ccccc3OCc3ccccc3)cc2)CC(C)(C)N1 : 3600
4. CCCC(C)n1ccc2c(C(=O)NCc3c4c(c(C)[nH]c3=O)CCCC4)cc(-c3cn(C)c(=O)c4[nH]ccc34)cc21 (centres undefined) : 9.3
5. Cc1cc(C(=O)NC2CC(C)(C)NC(C)(C)C2)cc(C)c1Oc1ccccc1C#N : 51000
6. Cc1cc(C)c(CNC(=O)c2cc(-c3ccc(N4CCNCC4)nc3)nc3c2cnn3C(C)C)c(=O)[nH]1 : 200
7. CCN(c1cc(-c2ccc(OCCCCCNC(=O)C[C@@H]3N=C(c4ccc(Cl)cc4)c4c(sc(C)c4C)-n4c(C)nnc43)cc2)cc(C(=O)NCc2c(C)cc(C)[nH]c2=O)c1C)C1CCOCC1 : 490
8. Cc1cc(C)c(CNC(=O)c2cc(-c3ccc(CN4CCOCC4)cc3)cc3c2C(C)CN3CC2CC2)c(=O)[nH]1 (stereo in doubt; 31e1) : 375
9. CCn1ncc2c(C(=O)NCc3c(C)cc(C)[nH]c3=O)cc(C3=CC(C)(C)NC(C)(C)C3)nc21 : 5000
10. CCC(CC)n1ccc2c(C(=O)NCc3c(C)cc(C)[nH]c3=O)cc(-c3cn(C)c(=O)c4[nH]ccc34)cc21 : 3
11. CCN(c1cc(Cl)cc(C(=O)NCc2c(C)cc(C)[nH]c2=O)c1)C1CCOCC1 : 14000
12. Cc1cc(C)c(CNC(=O)c2cc(NCCCCCNC(=O)C[C@@H]3N=C(c4ccc(Cl)cc4)c4c(sc(C)c4C)-n4c(C)nnc43)cc3c2cnn3C(C)C)c(=O)[nH]1 : 82

###

A compilation of published IC50 results with Histone-lysine N-methyltransferase EZH2 (Homo sapiens, UniProt Q15910).
Sequence (Q15910 whole entry): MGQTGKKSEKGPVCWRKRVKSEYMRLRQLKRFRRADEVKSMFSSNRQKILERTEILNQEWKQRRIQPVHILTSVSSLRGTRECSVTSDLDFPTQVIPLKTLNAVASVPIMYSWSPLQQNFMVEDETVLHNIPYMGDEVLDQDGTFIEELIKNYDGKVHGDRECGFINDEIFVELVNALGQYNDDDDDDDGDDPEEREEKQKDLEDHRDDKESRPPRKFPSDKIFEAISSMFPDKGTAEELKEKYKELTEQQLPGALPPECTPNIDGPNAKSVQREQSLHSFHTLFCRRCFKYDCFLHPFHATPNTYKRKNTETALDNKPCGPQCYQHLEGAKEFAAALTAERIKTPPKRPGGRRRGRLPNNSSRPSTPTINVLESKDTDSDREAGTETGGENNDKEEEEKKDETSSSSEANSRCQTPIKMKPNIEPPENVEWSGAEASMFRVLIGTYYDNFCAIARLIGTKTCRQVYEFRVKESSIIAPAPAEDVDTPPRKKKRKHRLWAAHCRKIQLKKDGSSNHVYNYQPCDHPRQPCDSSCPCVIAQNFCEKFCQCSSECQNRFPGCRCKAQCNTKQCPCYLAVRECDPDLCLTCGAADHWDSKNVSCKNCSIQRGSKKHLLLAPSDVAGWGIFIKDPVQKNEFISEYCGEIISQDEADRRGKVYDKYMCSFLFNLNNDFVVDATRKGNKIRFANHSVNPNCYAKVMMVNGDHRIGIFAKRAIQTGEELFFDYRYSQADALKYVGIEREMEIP
readout type: IC50 (µM)

1) CC1(C)CC(NC(=O)c2ccc(Oc3ccccc3C#N)cc2F)CC(C)(C)N1 : 15
2) Cc1cc(C)c(CNC(=O)c2cc(-c3cn(C)c(=O)c4[nH]ccc34)cc3c2ccn3C(C)C)c(=O)[nH]1 : 0.0057
3) COc1ccc2nc(Nc3nc(O)cc(CSc4nnnn4-c4ccccc4)n3)nc(C)c2c1 : 22.6
4) CC1(C)CC(NC(=O)c2ccc(Oc3ccccc3Cl)cc2)CC(C)(C)N1 : 29
5) COc1cc2nc(N3CCCN(C)CC3)nc(NCc3c(C)cc(C)[nH]c3=O)c2cc1OC : 0.0533
6) Cc1cc(C)c(CNC(=O)c2cnn(-c3ccccc3)c2C)c(=O)[nH]1 : 5.78

###

A compilation of published pIC50 results with Histone-lysine N-methyltransferase EZH2 (Homo sapiens, UniProt Q15910).
pIC50: −log10 of the molar value.
readout type: pIC50

1) Cl.Nc1cccc2c(S(=O)(=O)NCc3ccccc3)cccc12 : < 4.70
2) CC1(C)CC(NC(=O)c2ccc(Nc3ccccc3)cc2)CC(C)(C)N1 : < 4.10
3) CC1(C)CC(NC(=O)c2ccc(S(=O)(=O)c3ccccc3)cc2)CC(C)(C)N1 : < 4.10
4) Cc1cc(C)c(CNC(=O)c2ccc3cnn(C(C)C)c3c2)c(=O)[nH]1 : < 4.30
5) CC1(C)CC(NC(=O)c2ccc(Cc3ccccc3)cc2)CC(C)(C)N1 : < 4.10

###

pIC50: −log10 of the molar value.
A compilation of published pIC50 results with Histone-lysine N-methyltransferase EZH2 (Homo sapiens).
readout type: pIC50

1) C=CC(=O)N(C)c1nc(NC2CCN(C)CC2)c2cc(OC)c(OCCCN3CCCC3)cc2n1 : < 4.70
2) CCN(c1cc(Cl)cc(C(=O)NCc2c(C)cc(C)nc2OC)c1C)C1CCOCC1 : < 5.00
3) CC(CNC(=O)Nc1ccc(C(C)(C)C)cc1)CN(C)C[C@H]1O[C@@H](n2cnc3c(N)ncnc32)[C@H](O)[C@@H]1O (some centres undefined) : < 4.30
4) CC1(C)CC(NC(=O)c2ccc([S+]([O-])c3ccccc3)cc2)CC(C)(C)N1 (centres undefined) : < 4.10
